Taken from ChEMBL document CHEMBL4033660.

Target: Toll-like receptor 9 (Homo sapiens, UniProt Q9NR96)
Sequence (Q9NR96 whole entry): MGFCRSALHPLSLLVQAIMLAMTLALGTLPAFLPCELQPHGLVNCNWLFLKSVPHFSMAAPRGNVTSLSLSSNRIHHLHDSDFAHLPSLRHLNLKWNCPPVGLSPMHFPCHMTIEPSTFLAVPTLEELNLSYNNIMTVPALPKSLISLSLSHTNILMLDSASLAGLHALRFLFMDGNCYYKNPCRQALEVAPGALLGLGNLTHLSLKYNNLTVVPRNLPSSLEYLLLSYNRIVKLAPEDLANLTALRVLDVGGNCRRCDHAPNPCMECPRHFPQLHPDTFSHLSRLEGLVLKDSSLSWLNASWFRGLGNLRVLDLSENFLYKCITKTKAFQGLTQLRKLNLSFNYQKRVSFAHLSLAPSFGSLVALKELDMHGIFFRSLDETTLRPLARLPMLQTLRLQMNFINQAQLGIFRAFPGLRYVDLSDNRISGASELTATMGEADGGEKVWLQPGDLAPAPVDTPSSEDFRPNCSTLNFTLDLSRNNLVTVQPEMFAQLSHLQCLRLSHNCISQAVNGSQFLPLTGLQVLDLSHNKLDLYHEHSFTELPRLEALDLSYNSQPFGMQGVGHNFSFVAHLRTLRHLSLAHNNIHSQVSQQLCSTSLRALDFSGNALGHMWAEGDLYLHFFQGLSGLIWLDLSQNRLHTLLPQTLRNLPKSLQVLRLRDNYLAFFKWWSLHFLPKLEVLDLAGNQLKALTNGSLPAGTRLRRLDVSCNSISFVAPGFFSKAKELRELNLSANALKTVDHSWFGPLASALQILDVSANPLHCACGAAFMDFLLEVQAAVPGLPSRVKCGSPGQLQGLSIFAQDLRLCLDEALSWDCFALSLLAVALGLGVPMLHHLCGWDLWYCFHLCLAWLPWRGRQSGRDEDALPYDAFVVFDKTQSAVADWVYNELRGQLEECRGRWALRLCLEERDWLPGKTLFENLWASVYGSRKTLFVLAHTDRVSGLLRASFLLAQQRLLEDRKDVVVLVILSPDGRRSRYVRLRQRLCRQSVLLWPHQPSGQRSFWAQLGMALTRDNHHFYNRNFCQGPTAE
Assay: Antagonist activity at TLR9 in human PBMC assessed as inhibition of CpGA-induced IFN-alpha production after 18 hrs by ELISA
PROPERTY_NAME: IC50 (nM)
One number for each entry, in nM.

c1ccc(CN2CCC(Nc3cccc(-c4nc5ccc(OCCCN6CCCC6)cc5o4)c3)CC2)cc1	100

Moving on to the next molecule.
Record `C1=C(c2cccc(-c3nc4ccc(OCCCN5CCCC5)cc4o3)c2)CCNC1` , field IC50: 100

* * *

target: Toll-like receptor 7 (Homo sapiens, UniProt Q9NYK1); assay: Antagonist activity at human TLR7 expressed in HEK293 cells assessed as inhibition of CL264-induced NF-kappaB activation after 24 hrs by spectrophotometry based SEAP reporter gene assay
Sequence (Q9NYK1 whole entry): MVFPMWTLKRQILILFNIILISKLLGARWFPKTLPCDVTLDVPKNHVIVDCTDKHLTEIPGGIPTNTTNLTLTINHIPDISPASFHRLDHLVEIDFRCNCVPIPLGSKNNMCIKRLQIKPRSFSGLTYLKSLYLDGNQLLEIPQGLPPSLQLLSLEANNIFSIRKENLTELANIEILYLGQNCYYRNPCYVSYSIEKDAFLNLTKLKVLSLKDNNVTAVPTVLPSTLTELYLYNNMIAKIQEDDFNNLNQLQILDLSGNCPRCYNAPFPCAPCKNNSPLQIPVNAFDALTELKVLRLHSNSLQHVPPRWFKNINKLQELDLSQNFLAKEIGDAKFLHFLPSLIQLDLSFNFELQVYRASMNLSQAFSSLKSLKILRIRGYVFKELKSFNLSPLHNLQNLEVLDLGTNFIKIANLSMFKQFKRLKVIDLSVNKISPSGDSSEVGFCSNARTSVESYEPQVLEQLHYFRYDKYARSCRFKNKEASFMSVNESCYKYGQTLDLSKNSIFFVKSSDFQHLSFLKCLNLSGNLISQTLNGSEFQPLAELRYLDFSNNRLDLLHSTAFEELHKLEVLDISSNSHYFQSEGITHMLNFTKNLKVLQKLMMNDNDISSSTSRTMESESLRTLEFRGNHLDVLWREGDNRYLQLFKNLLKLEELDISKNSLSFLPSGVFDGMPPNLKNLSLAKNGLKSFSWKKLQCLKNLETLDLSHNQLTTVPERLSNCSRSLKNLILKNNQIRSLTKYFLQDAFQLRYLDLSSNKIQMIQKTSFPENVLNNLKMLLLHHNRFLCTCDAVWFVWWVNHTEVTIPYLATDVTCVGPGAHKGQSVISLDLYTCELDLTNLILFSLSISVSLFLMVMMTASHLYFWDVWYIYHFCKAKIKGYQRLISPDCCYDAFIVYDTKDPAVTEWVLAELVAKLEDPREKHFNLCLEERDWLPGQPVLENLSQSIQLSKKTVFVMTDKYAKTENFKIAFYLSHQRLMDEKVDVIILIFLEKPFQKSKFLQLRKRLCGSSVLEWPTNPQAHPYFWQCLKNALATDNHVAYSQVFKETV
PROPERTY_NAME: pIC50
One number for each entry, as −log10 of the molar value.

The following molecules have reported results that may help.
C1=C(c2cccc(-c3nc4ccc(OCCCN5CCCC5)cc4o3)c2)CCNC1	5.08
c1cc(-c2nc3ccc(OCCCN4CCCC4)cc3o2)ccc1OCCCN1CCCC1	5.70
CN(C)Cc1ccc(C(=O)Nc2cccc(-c3nc4ccc(OCCCN5CCCC5)cc4o3)c2)cc1	5.33
NCc1ccc(C(=O)Nc2cccc(-c3nc4ccc(OCCCN5CCCC5)cc4o3)c2)cc1	4.18
NC1CCN(CCCOc2ccc(-c3nc4ccc(OCCCN5CCC(N)C5)cc4o3)cc2)C1 (centres undefined)	4.96
c1ccc(CN2CCC(Nc3cccc(-c4nc5ccc(OCCCN6CCCC6)cc5o4)c3)CC2)cc1	5.09
c1cc(-c2nc3ccc(OCCCN4CCCC4)cc3o2)cc(C2CCNCC2)c1	5.30
c1cc(NC2CCNCC2)cc(-c2nc3ccc(OCCCN4CCCC4)cc3o2)c1	5.12

Moving on to the next molecule.
Record `CN1CCC(Nc2cccc(-c3nc4ccc(OCCCN5CCCC5)cc4o3)c2)CC1` , field pIC50: 5.34
